Can you tell me IC50 for the items I'm about to list?
# target or test system: recombinant human CCR5 receptor (Homo sapiens)
# method: MIP-1α radioligand binding assay (scintillation proximity), CHO cell membranes
# condition label: Pic50, negative log (base 10) of IC50 (M); displacement of 0.1 nM iodinated MIP-1α; CHO membranes with recombinant human CCR5; average if tested more than once
# Procedure: The ability of compounds to inhibit the binding of MIP-1 α was assessed by an in vitro radioligand binding assay. Membranes were prepared from Chinese hamster ovary cells which expressed the recombinant human CCR5 receptor. These membranes were incubated with 0.1 nM iodinated MIP-1α, scintillation proximity beads and various concentrations of the compounds of the invention in 96-well plates. The amount of iodinated MIP-1α bound to the receptor was determined by scintillation counting. […]
Where a name gives a salt, the structure may show the parent alone.
Numbers only, in M.

Hey, quick one: what's IC50 for each of these?
1. CCN(C(=O)Cc1ccc(S(C)(=O)=O)cc1)C1CCN(CC[C@H](c2ccc(S(C)(=O)=O)cc2)c2cccc(F)c2)CC1
2. CCN(C(=O)Cc1ccc(S(C)(=O)=O)cc1)C1CCN(CC[C@H](c2ccc(S(C)(=O)=O)cc2)c2ccc(F)c(F)c2)CC1 [Compound No. 54, hydrochloride]
3. CCN(C(=O)Cc1ccc(S(C)(=O)=O)cc1)C1CCN(CC[C@@H](c2ccccc2)c2ccc(S(C)(=O)=O)cc2)CC1

1: 3.72e-10; 2: 2.14e-08; 3: 8.13e-10

* * *

# target or test system: recombinant human CCR5 receptor (Homo sapiens, UniProt P51681)
# Sequence (P51681 whole entry): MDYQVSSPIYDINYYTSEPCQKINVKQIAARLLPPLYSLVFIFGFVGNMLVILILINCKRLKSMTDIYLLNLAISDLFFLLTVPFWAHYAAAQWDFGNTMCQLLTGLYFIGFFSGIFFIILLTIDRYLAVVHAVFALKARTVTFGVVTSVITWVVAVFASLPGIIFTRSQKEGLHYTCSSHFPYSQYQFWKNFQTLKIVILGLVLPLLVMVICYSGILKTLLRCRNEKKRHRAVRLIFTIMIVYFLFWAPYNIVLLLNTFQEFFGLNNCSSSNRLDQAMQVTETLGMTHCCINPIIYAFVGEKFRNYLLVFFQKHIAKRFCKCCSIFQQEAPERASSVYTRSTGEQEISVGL
# method: MIP-1α radioligand binding assay (scintillation proximity), CHO cell membranes
# condition label: negative log (base 10) of IC50 (M); displacement of 0.1 nM iodinated MIP-1α; CHO membranes with recombinant human CCR5; average if tested more than once; read-out: Pic50 (converted)
Can you tell me IC50 for the items I'm about to list?
Answers are plain numbers, in M.

Previously resolved entries follow.
# compound, unit info, IC50
rows = [
    ("CCN(C(=O)Cc1ccc(S(C)(=O)=O)cc1)C1CCN(CCC(c2ccccc2)c2ccc([S+](C)[O-])cc2)CC1 (stereo not drawn)", "M", "1.38e-08"),
    ("CCN(C(=O)Cc1ccc(S(C)(=O)=O)cc1)C1CCN(CCC(c2ccccc2)c2ccc(NS(=O)(=O)c3ccccc3)cc2)CC1 (stereo not drawn)", "M", "8.51e-07"),
]

Note: attention shifts to another entry.
# query: IC50 of entry CCN(C(=O)Cc1ccc(S(C)(=O)=O)cc1)C1CCN(CCC(c2ccc(NS(C)(=O)=O)cc2)c2cccc(F)c2)CC1 (stereo not drawn) [compound 46]
9.12e-09

* * *

Can you tell me IC50 for the items I'm about to list?
# target or test system: recombinant human CCR5 receptor (Homo sapiens, UniProt P51681)
# method: MIP-1α radioligand binding assay (scintillation proximity), CHO cell membranes
# condition label: negative log (base 10) of IC50 (M); displacement of 0.1 nM iodinated MIP-1α; CHO membranes with recombinant human CCR5; average if tested more than once; read-out: Pic50 (converted)
# Procedure: The ability of compounds to inhibit the binding of MIP-1 α was assessed by an in vitro radioligand binding assay. Membranes were prepared from Chinese hamster ovary cells which expressed the recombinant human CCR5 receptor. These membranes were incubated with 0.1 nM iodinated MIP-1α, scintillation proximity beads and various concentrations of the compounds of the invention in 96-well plates. The amount of iodinated MIP-1α bound to the receptor was determined by scintillation counting. […]
Where a name gives a salt, the structure may show the parent alone.
Answers are plain numbers, in M.

# compound, unit info, IC50
records = [
    ("CCN(C(=O)Cc1ccc(S(C)(=O)=O)cc1)C1CCN(CCC(c2ccc(NC(=O)c3ccc(S(C)(=O)=O)cc3)cc2)c2cccc(F)c2)CC1 (stereo not drawn)", "M", "3.47e-08"),
]

Hey, quick one: what's IC50 for each of these?
1. CCN(C(=O)Cc1ccc(S(C)(=O)=O)cc1)C1CCN(CCC(c2ccc(N)cc2)c2cccc(F)c2)CC1 (stereo not drawn) [Compound No. 44, hydrochloride]
2. CCN(C(=O)Cc1ccc(S(C)(=O)=O)cc1)C1CCN(CCC(c2ccc(NS(C)(=O)=O)cc2)c2cccc(F)c2)CC1 (stereo not drawn) [Compound No. 49]

1: 1.05e-07; 2: 6.17e-09
